# Test target: T1, human IL-33 (R&D Systems, #3625-IL-010/CF) (human, UniProt O95760 112-270)
# T1 construct: Commercial recombinant protein; also called hIL-33; interleukin-33
# T1 sequence (looked up): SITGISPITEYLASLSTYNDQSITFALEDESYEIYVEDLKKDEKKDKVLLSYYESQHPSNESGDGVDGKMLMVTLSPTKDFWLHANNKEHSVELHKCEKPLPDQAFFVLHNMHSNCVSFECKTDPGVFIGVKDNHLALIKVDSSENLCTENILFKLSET
# Assay text: SPR 37C, pH6.0 chase, mAb captured
# Procedure: Equilibrium dissociation constants (KD values) for IL-33 binding to purified anti-IL-33 monoclonal antibodies were determined using a real-time surface plasmon resonance biosensor using a Biacore 4000 instrument. […] Association of either hIL-33 or MfIL-33-6His to the captured monoclonal antibody was monitored for 4 minutes and their dissociation in ABS-ET running buffer was monitored for 10 minutes. […]

Binder | Units label | t½
H4H9640P (antibody, human IgG4, V domains shown, Human IgG4 Fc (H4H)) VH: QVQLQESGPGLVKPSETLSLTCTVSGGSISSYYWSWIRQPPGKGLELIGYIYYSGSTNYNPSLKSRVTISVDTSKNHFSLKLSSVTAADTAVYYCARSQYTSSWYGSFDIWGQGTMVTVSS VL: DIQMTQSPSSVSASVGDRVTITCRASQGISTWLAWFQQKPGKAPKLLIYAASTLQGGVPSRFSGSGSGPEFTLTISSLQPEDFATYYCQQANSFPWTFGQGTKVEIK | min | 4
H4H9676P (antibody, human IgG4, V domains shown, Human IgG4 Fc (H4H)) VH: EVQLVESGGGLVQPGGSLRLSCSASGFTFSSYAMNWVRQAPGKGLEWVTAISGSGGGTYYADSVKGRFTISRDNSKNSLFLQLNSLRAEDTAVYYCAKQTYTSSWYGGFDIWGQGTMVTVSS VL: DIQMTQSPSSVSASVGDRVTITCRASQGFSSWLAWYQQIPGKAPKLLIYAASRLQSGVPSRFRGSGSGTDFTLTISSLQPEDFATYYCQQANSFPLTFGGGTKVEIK | min | 2
H1M9559N (antibody, mouse IgG1, V domains shown, Human variable domains, mouse IgG1 Fc (H1M)) VH: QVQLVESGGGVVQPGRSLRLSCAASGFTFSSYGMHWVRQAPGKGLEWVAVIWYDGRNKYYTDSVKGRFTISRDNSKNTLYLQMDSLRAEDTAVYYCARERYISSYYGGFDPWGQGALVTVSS VL: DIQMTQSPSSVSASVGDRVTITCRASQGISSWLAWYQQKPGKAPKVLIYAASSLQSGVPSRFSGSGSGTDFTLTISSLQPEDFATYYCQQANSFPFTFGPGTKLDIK | min | 12
H1M9566N (antibody, mouse IgG1, V domains shown, Human variable domains, mouse IgG1 Fc (H1M)) VH: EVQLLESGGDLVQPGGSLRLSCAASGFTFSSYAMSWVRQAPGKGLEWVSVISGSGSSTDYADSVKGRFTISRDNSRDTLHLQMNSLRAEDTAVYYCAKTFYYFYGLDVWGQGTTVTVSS VL: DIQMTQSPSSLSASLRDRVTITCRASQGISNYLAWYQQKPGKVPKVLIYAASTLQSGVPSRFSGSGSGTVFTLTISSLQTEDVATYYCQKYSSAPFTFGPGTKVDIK | min | 12
H4H9672P (antibody, human IgG4, V domains shown, Human IgG4 Fc (H4H)) VH: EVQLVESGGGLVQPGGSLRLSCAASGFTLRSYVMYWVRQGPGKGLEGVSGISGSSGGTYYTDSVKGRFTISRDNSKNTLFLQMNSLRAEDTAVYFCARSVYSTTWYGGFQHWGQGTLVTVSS VL: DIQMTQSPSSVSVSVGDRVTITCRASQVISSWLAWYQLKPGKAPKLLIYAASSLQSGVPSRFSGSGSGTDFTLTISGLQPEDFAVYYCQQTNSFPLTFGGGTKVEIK | min | 2
